Reference source: ChEMBL document CHEMBL4152224

# assay_info: Buffer/octanol partition coefficient, log D of the compound at pH 7.4 by shake flask method
# Type: physicochemical
Overview of reported logD across a group of compounds:
quantity_measured: logD

smi: CO[C@H]1C[C@@H](n2c(=O)n(C)c3cnc4ccc(-c5ccc(OCCCN6CCC6)nc5)cc4c32)C1
reported_measurement: 1.4
--
smi: CO[C@H]1C[C@@H](n2c(=O)n(C)c3cnc4cc(F)c(-c5ccc(OCCCN(C)C)nc5F)cc4c32)C1
reported_measurement: 2.1
--
smi: CO[C@H]1C[C@@H](n2c(=O)n(C)c3cnc4cc(F)c(-c5ccc(CS(C)(=O)=O)nc5)cc4c32)C1
reported_measurement: 1.3
--
smi: CN(C)CCCOc1ccc(-c2ccc3ncc4c(c3c2)n([C@H]2C[C@@H](O)C2)c(=O)n4C)cn1
reported_measurement: 1.1
--
smi: Cn1c(=O)n(C2CCOCC2)c2c3cc(-c4ccc(OCCCN5CCCCC5)nc4)c(F)cc3ncc21
reported_measurement: 2.1
--
smi: COCc1ccc(-c2cc3c(cc2F)ncc2c3n([C@H]3CC[C@H](OC)CC3)c(=O)n2C)cn1
reported_measurement: 3.2
--
smi: CO[C@H]1C[C@@H](n2c(=O)n(C)c3cnc4cc(F)c(-c5ccc(OCCCN(C)C)nc5)cc4c32)C1
reported_measurement: 1.8
--
smi: CO[C@H]1C[C@@H](n2c(=O)n(C)c3cnc4cc(F)c(-c5ccc(OCCN(C)C)nc5)cc4c32)C1
reported_measurement: 2
